- assayed.target: HSP90
- assay.info: Hsp90 chaperone assay (refolding of heat-denatured luciferase)
- Format: biochemical
- recorded.conditions: luminescence readout, graded IC50

# item.smiles, assayed.target, IC50
rows = [
    ("Nc1ncnc2c1nc(Sc1cc3c(cc1Br)OCO3)n2CCOCCCCC(=O)NO", "HSP90", "≥ 10 µM"),
    ("Nc1ncnc2c1nc(Sc1cc3c(cc1Br)OCO3)n2CCOCCCCCC(=O)NO", "HSP90", "≥ 10 µM"),
    ("Nc1nccc2c1nc(Sc1cc3c(cc1I)OCO3)n2CCCCCCC(=O)NO", "HSP90", "0.1 to 1 µM"),
    ("Nc1ncnc2c1nc(Sc1cc3c(cc1Br)OCO3)n2CCOCCCCCCC(=O)NO", "HSP90", "≥ 10 µM"),
    ("Nc1ncnc2c1nc(Sc1cc3c(cc1Br)OCO3)n2CCOCCCC(=O)NO", "HSP90", "≥ 10 µM"),
    ("Nc1ncnc2c1nc(Sc1cc3c(cc1Br)OCO3)n2CCCCCCC(=O)NO", "HSP90", "0.1 to 1 µM"),
    ("C#CCCCn1c(Sc2cccc(OCCCCCC(=O)NO)c2)nc2c(N)ncnc21", "HSP90", "≥ 10 µM"),
    ("Nc1ncnc2c1nc(Sc1cc3c(cc1Br)OCO3)n2CCOCC(=O)NO", "HSP90", "≥ 10 µM"),
    ("Nc1ncnc2c1nc(Sc1cc3c(cc1I)OCO3)n2CCNCCCCCC(=O)NO", "HSP90", "0.1 to 1 µM"),
]

* * *

Recorded IC50 values for a group of compounds are listed next.
- assayed.target: HSP90
- assay.info: Hsp90 chaperone assay (refolding of heat-denatured luciferase)
- recorded.conditions: luminescence readout, graded IC50
value.kind: IC50

# item.smiles, assayed.target, measurement
rows = [
    ("Nc1ncnc2c1nc(Sc1cc3c(cc1Br)OCO3)n2CCCCCC(=O)NO", "HSP90", "100 to 1000 nM"),
    ("Nc1ncnc2c1nc(Sc1cc3c(cc1Br)OCO3)n2CCNCCCCCCC(=O)NO", "HSP90", "100 to 1000 nM"),
    ("Nc1ncnc2c1nc(Sc1cc3c(cc1Cl)OCO3)n2CCCCCCC(=O)NO", "HSP90", "1000 to 10000 nM"),
    ("Nc1ncnc2c1nc(Sc1cc3c(cc1Br)OCO3)n2CCNCCCCCC(=O)NO", "HSP90", "100 to 1000 nM"),
    ("Nc1ncnc2c1nc(Sc1cc3c(cc1Br)OCO3)n2CCNCC(=O)NO", "HSP90", "100 to 1000 nM"),
    ("C#CCCCn1c(Sc2cccc(OCCCC(=O)NO)c2)nc2c(N)ncnc21", "HSP90", "≥ 10000 nM"),
    ("Nc1nccc2c1nc(Sc1cc3c(cc1Br)OCO3)n2CCCCCCC(=O)NO", "HSP90", "1000 to 10000 nM"),
    ("Nc1ncnc2c1nc(Sc1cc3c(cc1I)OCO3)n2CCCCCCC(=O)NO", "HSP90", "≤ 100 nM"),
    ("Nc1nccc2c1nc(Sc1cc3c(cc1Cl)OCO3)n2CCCCCCC(=O)NO", "HSP90", "1000 to 10000 nM"),
    ("Nc1ncnc2c1nc(Sc1cc3c(cc1I)OCO3)n2CCNCC(=O)NO", "HSP90", "100 to 1000 nM"),
    ("Nc1ncnc2c1nc(Sc1cc3c(cc1I)OCO3)n2CCNCCCCCCC(=O)NO", "HSP90", "100 to 1000 nM"),
    ("Nc1ncnc2c1nc(Sc1cc3c(cc1Br)OCO3)n2CCNCCC(=O)NO", "HSP90", "100 to 1000 nM"),
    ("C#CCCCn1c(Sc2cccc(C(=O)NO)c2)nc2c(N)ncnc21", "HSP90", "≥ 10000 nM"),
]
